EXPERIMENTAL_READOUT: melting point

Completed entries (count: 2):
>>> df
                               query_smiles         result
0                     O=C(Cn1ccnc1)c1ccccc1  121 to 122 °C
1  CCCCOc1ccc(Cl)cc1C(=O)NCCc1ccc(CC(=O)O)cc1  104 to 105 °C

# input compound: CC(C)(C)OC(=O)N[C@@H](Cc1cncn1COCc1ccccc1)C(=O)O ; wanted: its melting point
155 to 157 °C

* * *

Examples of molecules with documented melting point follow.

In [3]: df
Out[3]:
                                   molecule  experimental_readout       result
0  CC(C)(C)S(=O)C1CC(=O)N1CC(=O)CCc1ccccc1 (configuration not stated)         melting point  79 to 81 °C
1   COc1ccc(C(=O)Nc2cccnc2Cl)c2c1oc1ccccc12         melting point       192 °C
2  NC(=O)[C@@H]1[C@H](Nc2c(Br)cnc3[nH]c(-c4cncnc4)nc23)[C@H]2C=C[C@@H]1C2         melting point     > 300 °C

# input molecule: CC(CCc1ccc(N(C)C)cc1)NCC(O)c1sccc1C(N)=O (configuration not stated) ; wanted: its melting point
118 to 121 °C

# input molecule: COC(=O)C(=O)c1ccc(SCCOc2ccc3ccccc3c2)cc1 ; wanted: its melting point
124 to 125 °C

# input molecule: COC(=O)c1ccc2nnc(C(=O)NCc3ccc(Cl)cc3)c(O)c2c1 ; wanted: its melting point
308 to 310 °C

# input molecule: CC(C)(NC(=O)OCc1ccccc1)C(=O)Nc1ccc([N+](=O)[O-])cc1C(=O)c1ccccc1F ; wanted: its melting point
153 to 155 °C

# input molecule: Clc1n[nH]c2cccc(NC3=NCCN3)c12 ; wanted: its melting point
245 to 250 °C

# input molecule: O=C1CCC2CCCC(CCC(=O)OCc3ccccc3)C2N1 (configuration not stated) ; wanted: its melting point
101 to 102 °C

# input molecule: NC1=NN(c2ccccc2)C(c2ccc(Cl)c(Cl)c2)C1 (configuration not stated) ; wanted: its melting point
150 to 152 °C

# input molecule: O=C(O)c1cc(=O)c(OCc2ccccc2)c(-c2ccccc2)o1 ; wanted: its melting point
161 to 170 °C

# input molecule: CC(=O)C1CCC2C3CCC4CC(O)C(N5CCSC(C)(C)C5)CC4(C)C3C(=O)CC12C (configuration not stated) ; wanted: its melting point
202 to 203 °C

# input molecule: Cc1ccc2c(c1)nnn2CNc1ccccc1 ; wanted: its melting point
149 to 152 °C

# input molecule: CC(=Cc1ccc(C(=O)O)cc1)c1ccc2c(c1)OCCC2(C)C ; wanted: its melting point
242 to 244 °C

# input molecule: N#CC1OC12CCN(C(=O)c1ccc(F)c(Cl)c1)CC2 (configuration not stated) ; wanted: its melting point
100 to 101 °C

# input molecule: CS(=O)(=O)c1cccc(CNC(=O)c2nc3scc(COCc4ccc(C(=O)O)cc4)c3c(=O)[nH]2)c1 ; wanted: its melting point
265 to 267 °C

# input molecule: O=C(NC1CCCCC1)NC1CCCc2sccc21 (configuration not stated) ; wanted: its melting point
222 to 225 °C

# input molecule: Nc1ccc(C(O)(C(F)(F)F)C(F)(F)F)cc1S ; wanted: its melting point
121 to 123 °C

# input molecule: O=C(O)c1cccc(Nc2ccc(-c3ccoc3)cc2[N+](=O)[O-])c1 ; wanted: its melting point
203 to 205 °C

# input molecule: C=C(C)C(=O)OC(C1CCCC1)C(O)(C(F)(F)F)C(F)(F)F (configuration not stated) ; wanted: its melting point
59 °C

# input molecule: Cc1cc(C)n(C)c1C(=O)c1cccnc1 ; wanted: its melting point
195 to 197 °C
